molecular target: human nerve growth factor (hNGF) (human, UniProt P01138 122-241); experiment: cell-based or functional assay
Sequence (P01138 122-241 limits assumed): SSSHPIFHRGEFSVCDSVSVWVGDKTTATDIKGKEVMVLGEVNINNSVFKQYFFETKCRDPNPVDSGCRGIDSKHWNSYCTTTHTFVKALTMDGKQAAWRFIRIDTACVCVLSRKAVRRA
property.name: IC50 (read off the curve), NGF-dependent TF-1 cell proliferation

{"binder": "humanized antibody AB5C6 (antibody, V domains shown, Humanized from #56 by surface remodeling) VH: QVQLKESGPGLVAPSETLSITCTVSGFSLTGYGVNWVRQPPGKGLEWLGMIWADGDTDYNSALKSRLTISKDNSKSQVFLKVNNLQTDDTARYYCARDSYYYGYNFFDVWGAGTTVTVSS VL: DIQMTQSPSSLSASVGDRVTISCRASQDISNYLNWYQQKPEGTLKLLIYYTSRLHSGVPSRFSGSGSGTDYSLTISSLQQEDIATYFCQQGNTLPRTFGGGTKLEIK", "result": "~0.4 µg/mL"}
{"binder": "humanized antibody AB5C2 (antibody, V domains shown, Humanized from #56 by CDR transplantation) VH: QVQLQESGPGLVKPSETLSLTCTVSGFSLTGYGVNWVRQPPGKGLEWLGMIWADGDTDYNSALKSRVTISKDTSKNQFSLKLSSVTAADTARYYCARDSYYYGYNFFDVWGAGTTVTVSS VL: DIQMTQSPSSLSASVGDRVTITCRASQDISNYLNWYQQKPGKAPKLLIYYTSRLHSGVPSRFSGSGSGTDFTFTISSLQPEDIATYFCQQGNTLPRTFGGGTKVEIK", "result": "~0.4 µg/mL"}
{"binder": "mouse monoclonal antibody #56 (antibody, mouse IgG1, V domains shown, also called Chen 56; antibody secreted by hybridoma A56) VH: QVQLKESGPGLVAPSQSLSITCTVSGFSLTGYGVNWVRQPPGKGLEWLGMIWADGDTDYNSALKSRLSISKDNSKSQVFLKVNNLQTDDTARYYCARDSYYYGYNFFDVWGAGTTVTVSS VL: DIQMTQTTSSLSASLGDRVTISCRASQDISNYLNWYQQKPEGTLKLLIYYTSRLHSGVPSRFSGSGSGTDYSLTISSLEQEDIATYFCQQGNTLPRTFGGGTKLEIK", "result": "~0.4 µg/mL"}
{"binder": "human mouse chimeric antibody AB5C1 (antibody, V domains shown) VH: QVQLKESGPGLVAPSQSLSITCTVSGFSLTGYGVNWVRQPPGKGLEWLGMIWADGDTDYNSALKSRLSISKDNSKSQVFLKVNNLQTDDTARYYCARDSYYYGYNFFDVWGAGTTVTVSS VL: DIQMTQTTSSLSASLGDRVTISCRASQDISNYLNWYQQKPEGTLKLLIYYTSRLHSGVPSRFSGSGSGTDYSLTISSLEQEDIATYFCQQGNTLPRTFGGGTKLEIK", "result": "~0.9 µg/mL"}

Data origin, for the record: patent US20210395354A1
